Source listed as ChEMBL document CHEMBL1147915.

Carbonic anhydrase 9 (Homo sapiens) measurements of Ki, listed per entry.
Answer with a number only, understood to be in nM.

Problem: Name the reported Ki value associated with the compound CC1(C)O[C@@H]2[C@@H](CO[C@@]3(CNC(=S)Nc4ccc(S(N)(=O)=O)cc4)OC(C)(C)O[C@@H]23)O1
Result: 82

Problem: Then this compound: CC1(C)O[C@@H]2[C@@H](CO[C@@]3(CNC(=S)Nc4cccc(S(N)(=O)=O)c4)OC(C)(C)O[C@@H]23)O1
Result: 4500

Problem: Then this compound: CC1(C)O[C@@H]2[C@@H](CO[C@@]3(CNC(=S)Nc4ccc(S(N)(=O)=O)cc4F)OC(C)(C)O[C@@H]23)O1
Result: 110
